Test system: IGROV-1
Assay: NCI tumour cell line growth inhibition, 48 h
Calls of active or inactive are those of the source. No stated cut-off is given here; in the data, active = GI50 up to about 1.1 µM and inactive = higher.
Respond using exactly one of the listed classes: true (active), false (inactive)

compound | assigned label
CC/C(C)=C1\OC(=O)C(C)C(O)C(Cc2cccnc2)NC(=O)C(NC(=O)c2ncccc2O)C(C)OC1=O (stereo not drawn) | false
COCOCC/C=C/C=O | false
CC1(C)CC(C)(C)CC(O)(C2(O)CC(C)(C)CC(C)(C)C2)C1 | false

# input for lookup
## Input Please state the recorded outcome for this compound: "NCCCN1CCN(CCCNc2ccc3ncn4c5ccccc5c(=O)c2c34)CC1"
## Output true

---

Recorded GI50 by entry
Test system: SN12C
Experiment: NCI tumour cell line growth inhibition, 48 h
The source made the active and inactive calls. Rule as the data show it: active = GI50 up to about 1.1 µM and inactive = higher.

molecule | GI50
COc1cc(C)c2c(c1C)OC(=O)c1c(C)c(Cl)c(O)c(C=O)c1O2 | 21.8 µM (inactive)

## Input If you can, please state the reported GI50 value of COC(=O)C1=C(OC(=O)c2ccccc2)C(C(=O)OC)[C@@]2(O)[C@@H](C(=O)OC)[C@H](C)C[C@@H]1[C@@H]2C(=O)OC (stereo not given in full) .
## Output 41.8 µM (inactive)

## Input What value of GI50 has been reported for the following molecule? "CCn1c(-c2ccc(/N=N/Nc3ccc(-c4n[nH]c(=S)n4CC)cc3)cc2)n[nH]c1=S"
## Output 3.02 µM (inactive)

## Input // query GI50 value for entry "CCOC(=O)C(C)(C)Oc1ccc2c(=O)cc(-c3ccc(Cl)cc3)oc2c1"
## Output > 100 µM (inactive)

## Input Which GI50 is listed for "COC(=O)c1c(O)ccc2c1c1c(n2Cc2ccc(Cl)cc2Cl)C(=O)c2ccccc2C1" ?
## Output 23.1 µM (inactive)

## Input Which GI50 reading was recorded for the molecule "CC1(C)S[C@@H]2[C@H](N3C(=O)c4ccccc4C3=O)CN2[C@H]1NC(=O)N[C@@H]1N2C[C@@H](N3C(=O)c4ccccc4C3=O)[C@H]2SC1(C)C" ?
## Output > 100 µM (inactive)

## Input Reported GI50 for "Cc1cc(N(CCC#N)CCC#N)ccc1/N=N/c1ccc([N+](=O)[O-])cc1" : what is it?
## Output 65.8 µM (inactive)

## Input Item under review: [N-]=[N+]=NCC1OCC(O)C(OCc2ccccc2)C1OCc1ccccc1 (stereo not given) . Reported GI50?
## Output > 100 µM (inactive)

## Input Please give the measured GI50 for this molecule: CC1(C)C2CCC(=O)C1C(OCc1ccccc1)C2 (stereo not given)
## Output > 100 µM (inactive)

## Input Any idea what its GI50 is? The molecule is "NC(=S)NS(=O)(=O)c1ccc(F)cc1"
## Output > 100 µM (inactive)
